- System: ACHN renal
- test.description: NCI-60 one-dose screen, 48 h
- conditions: 10 µM unless noted
The panel holds about 83,000 compounds, 20% with a hit somewhere; the sample as a whole holds those more often. The source made the active and inactive calls. How the source made its calls: active means growth percent below 10; inactive means the rest.
Please answer using one outcome listed in true (active), false (inactive)

Look up the recorded call for O=C(O)c1cccc(-c2ccc(/C=N/NC(=O)c3[nH]c4ccc(Br)cc4c3-c3ccccc3)s2)c1 in this test.
false

Look up the recorded call for CN1C(=O)/C(=C/c2ccc(C(=O)Nc3ncc(Cc4ccc(Cl)cc4Cl)s3)cc2)SC1=S in this test.
false

Look up the recorded call for N/C(=N\N=C\c1ccc([N+](=O)[O-])cc1)c1c(N)nc(=S)[nH]c1-c1ccc(Cl)cc1Cl in this test.
false

Look up the recorded call for COc1ccc(C(=O)/C=C/c2ccc3ccccc3c2)cc1S(N)(=O)=O in this test.
true

Look up the recorded call for O=C(Cn1c2c(sc1=O)[C@H]1[C@@H](O)[C@@H](O)[C@H](O)[C@@H]1CS2)N1CCOCC1 in this test.
false

Look up the recorded call for C#C[C@]1(O)CC[C@H]2[C@@H]3CC=C4c5sc(-c6ccc([N+](=O)[O-])cc6)nc5CC[C@]4(C)[C@H]3CC[C@@]21C in this test.
true

***
Look up the recorded call for COc1cc(C2CC(c3ccc(S(=O)(=O)NCCNc4nc(Nc5ccc(F)cc5)nc(N(C)C)n4)cc3)=Nc3c(N)nc(N)nc3N2)cc(OC)c1OC (centres undefined) in this test.
false

Look up the recorded call for Cn1cc(-c2nnc(N)nc2-c2c[nH]c3ccccc23)c2cccnc21 in this test.
false

---

Some compounds, each annotated with its measured growth.
- Tested on: NCI-H460 lung
- test.description: NCI-60 one-dose screen, 48 h (100 = growth as untreated, 0 = no growth, -100 = all killed)
- conditions: 10 µM unless noted
Compounds without any hit were thinned out: in the full panel of roughly 83,000, 20% have a hit.
Write down the numeric answer in % and omit the unit.

Return reported growth. Input compound: NS(=O)(=O)c1ccc(N=Nc2c(O)n(CC(=O)Nc3ccccc3)c3ccccc23)cc1
4.09

Return reported growth. Input compound: CN(C)c1ccnc(CNCCSC2(c3ccc(C(F)(F)F)cc3)c3ccccc3CCc3ccccc32)c1
-80.5

Return reported growth. Input compound: Cn1cc(-c2cc3nc(-c4cn(C)c5ncccc45)cc(N)n3n2)c2ccccc21
3.16

***
Return reported growth. Input compound: CC1=C(C(=O)c2ccccc2)C(c2cccc3ccccc23)n2c(nc3ccccc32)N1 (stereo not given)
87

---

- Tested on: NCI-H460 lung
- test.description: NCI-60 one-dose screen, 48 h
- conditions: 10 µM unless noted
This is part of a sample that, as a whole, favours compounds with a hit. Of some 83,000 tested, about 20% had one in any assay. The source made the active and inactive calls. How the source made its calls: active means growth percent below 10; inactive means the rest.
Please answer using one outcome listed in active, inactive

Completed entries (count: 2):
Look up the recorded call for O=c1[nH]c2ccccc2cc1CSc1cccc(Nc2nccc(-c3ccc4ccccc4c3)n2)c1 in this test.
inactive

Look up the recorded call for COc1ccc(-c2ccnc(SCc3cc4cc(Cl)ccc4[nH]c3=O)n2)cc1 in this test.
inactive

***
Look up the recorded call for CSc1ccc(C(=O)Nc2ccc3nnn(/C(C#N)=C/c4ccccn4)c3c2)cc1 in this test.
active

Look up the recorded call for CCCCCCCCOc1cccc(S(=O)(=O)Nc2ccc(C)cc2C(=O)O)c1 in this test.
inactive

Look up the recorded call for O=C1c2c(c3c4cc(F)ccc4oc3c3[nH]c4ccc(Br)cc4c23)C(=O)N1O in this test.
active

Look up the recorded call for Brc1ccc(N/N=C/c2c[nH]c3ccc(Br)cc23)nc1 in this test.
active

Look up the recorded call for COc1ccc(/C=C/c2nc3ccccc3n3c(-c4ccc(Cl)cc4)nnc23)cc1 in this test.
inactive

Look up the recorded call for COc1ccc2c(c1)c(/C=N/Nc1ccc3ccccc3n1)cn2C in this test.
active

Look up the recorded call for CC1[C@H]2[C@H](C[C@H]3[C@@H]4CC=C5c6sc(Nc7ccccc7F)nc6CC[C@]5(C)[C@H]4CC[C@@]32C)O[C@]12CC[C@@H](C)CO2 (some centres undefined) in this test.
active

---

- Test system: OVCAR-4 ovarian
- test.description: NCI-60 one-dose screen, 48 h
- conditions: 10 µM unless noted
This is part of a sample that, as a whole, favours compounds with a hit. Of some 83,000 tested, about 20% had one in any assay. The source made the active and inactive calls. How the source made its calls: active means growth percent below 10; inactive means the rest.
Please answer using one outcome listed in active, inactive

Look up the recorded call for COc1ccc(-c2nc3cc(C)ccc3n2CC(=O)N=Nc2c(O)[nH]c3ccccc23)cc1 in this test.
active

Look up the recorded call for Nc1cccc(SCc2cc3ccccc3[nH]c2=O)c1 in this test.
inactive

Look up the recorded call for COc1cc(-c2ccc(/C=N/NC(=O)c3[nH]c4ccc(Br)cc4c3-c3ccccc3)s2)cc(OC)c1OC in this test.
inactive

Look up the recorded call for COc1cc(C2CC(c3cc(OC)c(OC)c(OC)c3)=NN2c2ccccc2)ccc1OCc1ccc(C)cc1 (configuration not stated) in this test.
inactive

Look up the recorded call for O=C(NNc1nc2cc(C(F)(F)F)ccc2n2cccc12)c1cnccn1 in this test.
active

Look up the recorded call for O=C(COc1ccc(NC(=O)Nc2ccc(Cl)cc2)cc1)N/N=C/c1ccccc1 in this test.
active

Look up the recorded call for NS(=O)(=O)c1ccc(-n2cc(-c3cccc(NC(=O)c4cc(N5CCOCC5)cc(C(F)(F)F)c4)c3)nn2)cc1 in this test.
inactive

Look up the recorded call for C#CCOc1ccc(/C=N/Nc2nc(-c3ccc(F)cc3)cs2)cc1OC in this test.
inactive

Look up the recorded call for CC12CC[C@@H]3[C@]4(C)COC(c5cn[nH]c5-c5cccc(Cl)c5)O[C@@H]4CC[C@@]3(C)[C@@H]1CC(C1=CCOC1=O)O2 (some centres not stated) in this test.
inactive

Look up the recorded call for CCCCCCn1c(O)c(N=Nc2nc(-c3cc4ccccc4oc3=O)cs2)c2ccccc21 in this test.
active

***
Look up the recorded call for COc1ccc(-c2ccnc(SCc3cc4ccccc4[nH]c3=O)n2)cc1OC in this test.
active

Look up the recorded call for N/N=C(\N)c1c(N)nc(=S)[nH]c1-c1ccc(Cl)cc1Cl in this test.
inactive

Look up the recorded call for COc1ccccc1/C=C/C(=O)c1ccc(OC)c(S(N)(=O)=O)c1 in this test.
inactive

Look up the recorded call for CSc1ccc(C(=O)Nc2ccc3nn(/C(C#N)=C/c4ccccn4)nc3c2)cc1 in this test.
inactive

---

- System: RXF 393 renal
- test.description: NCI-60 one-dose screen, 48 h
- conditions: 10 µM unless noted
- Procedure: Cells are grown in 96 well plates and exposed to the test compound for 48 hours. Compounds are tested at a single concentration, which is 10^-5 M for most compounds. The reported endpoint is percent growth (GI% or GIPRCNT), where numbers from 0 - 100% represent growth inhibition, and numbers from -100% - 0 represent cell death. For example, a value of 40 represents 60% growth inhibition. A value of 0 means no net growth occurred over the course of the experiment. […]
About 83,000 compounds went through this panel and 20% of them were active in at least one assay; those are over-represented in the sample as a whole. Activity calls are given as the source filed them. Rule for the calls: active = growth percent below 10; inactive = the rest.
Please answer using one outcome listed in true (1) (active), false (0) (inactive)

Completed entries (count: 3):
Look up the recorded call for CC(C)c1sc(NC(=O)c2cc(NC(=O)c3cc(NC(=O)c4cscn4)cn3C)cn2C)nc1C(=O)NCCCN(C)C in this test.
true (1)

Look up the recorded call for C=CC[N+](C)(C)CCn1c2ccccc2c2nc3cc(C)c(C)cc3nc21 in this test.
false (0)

Look up the recorded call for O=C(Cn1c(/C=C/c2cccc([N+](=O)[O-])c2)nc2ccccc2c1=O)Nc1ccccc1 in this test.
false (0)

***
Look up the recorded call for COc1cc2oc(-c3cccc(NC(=O)[C@H](Cc4ccccc4)NC(=O)OC(C)(C)C)c3)cc(=O)c2c(OC)c1OC in this test.
false (0)

Look up the recorded call for C/C(=N\Nc1ccc(S(N)(=O)=O)cc1)c1ccc(N=Nc2c(Nc3ccccc3)[nH][nH]c2=O)cc1 in this test.
true (1)

Look up the recorded call for O=c1oc2ccccc2cc1-c1csc(N2N=C(c3ccccc3)CC2c2ccc(N3CCOCC3)cc2)n1 (stereo not drawn) in this test.
false (0)

Look up the recorded call for CCCCSc1nc(NCCc2c[nH]c3ccccc23)c(C#N)c(-c2ccccc2)n1 in this test.
true (1)

Look up the recorded call for COc1cc(CNC(=O)/C=C/c2ccc3c(c2)OCO3)ccc1OCc1cn(-c2ccc([N+](=O)[O-])cc2)nn1 in this test.
false (0)

Look up the recorded call for Cc1ccc(-c2nnc3ccc(N/N=C/c4ccccc4)nn23)cc1 in this test.
false (0)
